# Tested on: CD2F1 mice, L1210 leukemia ip, survival T/C
# protocol.text: NCI In Vivo Anticancer Drug Screen. Data for tumor model L1210 Leukemia (intraperitoneal) in CD2F1 (CDF1) mice
# conditions: endpoint: mean survival time; dose: 400.0 mg/kg/injection; schedule: Q04DX003 (ip); vehicle: saline with Tween-80; higher = longer survival
Toxic doses and inconclusive results are not listed.
measured.parameter: T/C

INSERT INTO measurements (molecule, experimental_value) VALUES
  ('C=CCCCCCCCCC(=O)N(CCOC)CCOC', '98 % of control');

Quick one: give me T/C for each item below, same order please.
1. COc1ccc(C(=O)O)c([N+](=O)[O-])c1
2. Nc1cccc(N2N=C(C(=O)O)CC2=O)c1
3. O=[N+]([O-])c1c(Cl)c(Cl)cc(Cl)c1Cl
4. CCCCCCCC/C=C/CCCCCCCCCCCCCCBr
5. O=C(NC(O)C(Cl)(Cl)Cl)c1ccccc1 (configuration not stated)

Result:
98 % of control
101 % of control
98 % of control
93 % of control
107 % of control

The molecule identified as C1OC2OC3OCOC3C2O1 (configuration not stated) registered its T/C at 95 % of control

The reported measurements were obtained from PubChem BioAssay AID256.
